test_target: UniProtKB Q9NP59
Sequence (Q9NP59 whole entry): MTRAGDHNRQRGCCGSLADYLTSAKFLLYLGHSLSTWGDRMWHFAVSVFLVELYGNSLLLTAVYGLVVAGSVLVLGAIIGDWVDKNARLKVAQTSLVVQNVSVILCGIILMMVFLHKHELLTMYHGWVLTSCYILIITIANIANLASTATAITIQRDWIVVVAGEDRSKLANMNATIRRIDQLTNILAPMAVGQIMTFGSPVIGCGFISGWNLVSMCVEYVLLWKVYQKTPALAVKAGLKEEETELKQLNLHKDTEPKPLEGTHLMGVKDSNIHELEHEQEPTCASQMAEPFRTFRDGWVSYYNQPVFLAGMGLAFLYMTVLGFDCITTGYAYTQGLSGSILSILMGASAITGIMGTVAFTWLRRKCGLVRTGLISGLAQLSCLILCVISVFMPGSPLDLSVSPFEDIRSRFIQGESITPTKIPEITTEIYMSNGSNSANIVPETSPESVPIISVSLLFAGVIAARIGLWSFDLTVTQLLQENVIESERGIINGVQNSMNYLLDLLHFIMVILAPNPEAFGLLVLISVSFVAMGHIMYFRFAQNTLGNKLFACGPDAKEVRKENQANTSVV
test_summary: FPN activity assay: internalization/degradation of ferroportin-GFP in stably transfected HEK293 cells (loss of GFP fluorescence)
Assay type: cell-based
measurement_conditions: Table 6A; read-out: FPN EC50
Starred links: 1 amine or outer side, 2 acyl side, 3 side chain; linkers in the order of their positions; H or OH if unused. Non-standard residues stand in square brackets, D forms with d. Residues, ends and D or L forms follow the SMILES beside them. Groups on a side chain read outwards from the residue. *: point of attachment. Ala(1H-tetrazol-5-yl) = N[C@@H](Cc1nnn[nH]1)C(=O)O; C18 diacid = O=C(O)CCCCCCCCCCCCCCCCC(=O)*; X15 = O=C([C@H](CCc1nnn[nH]1)N[*:1])[*:2]; X8 = O=C([C@H](CCc1nn[nH]n1)N[*:1])[*:2]; Dip = N[C@H](C(=O)O)C(c1ccccc1)c1ccccc1; His(τ-Me) = Cn1cnc(C[C@H](N)C(=O)O)c1; Gly(NCH2CH2Ph) = O=C(O)CNCCc1ccccc1; Palmitoyl = CCCCCCCCCCCCCCCC(=O)*; β3hF = N[C@H](CC(=O)O)Cc1ccccc1; hLeu = CC(C)CC[C@H](N)C(=O)O; Isovaleryl = CC(C)CC(=O)*; AEEA = NCCOCCOCC(=O)O; Ahx = NCCCCCC(=O)O
Provide the recorded DC50 for the entries that follow.
Express it in nM; write the number only.

// DC50 value for CCCCCCCCCCCCCCCC(=O)NCCCCCC(=O)NCCCC[C@H](NC(=O)[C@@H](NC(=O)[C@@H](NC(=O)[C@@H]1CCCN1C(=O)[C@@H](NC(=O)[C@H](Cc1cn(C)cn1)NC(=O)[C@@H](NC(=O)[C@H](CCc1nn[nH]n1)NC(=O)CC(C)C)[C@@H](C)O)C(c1ccccc1)c1ccccc1)[C@@H](C)CC)[C@@H](C)CC)C(=O)N[C@H](CC(N)=O)Cc1ccccc1 [compound 117] (Isovaleryl-[X8]T[His(τ-Me)][Dip]PIIK([Ahx-Palmitoyl])[β3hF]-NH2) : 101

// DC50 value for CCCCCCCCCCCCCCCC(=O)NCCCCCC(=O)NCCCC[C@H](NC(=O)[C@@H](NC(=O)[C@H](C)NC(=O)[C@@H]1CCCN1C(=O)[C@@H](NC(=O)[C@H](Cc1c[nH]cn1)NC(=O)[C@@H](NC(=O)[C@H](CCC(=O)O)NC(=O)CC(C)C)[C@@H](C)O)C(c1ccccc1)c1ccccc1)[C@@H](C)CC)C(=O)N(CCc1ccccc1)CC(N)=O [compound 93] (Isovaleryl-ETH[Dip]PAIK([Ahx-Palmitoyl])[Gly(NCH2CH2Ph)]-NH2) : 31.9

// DC50 value for CCCCCCCCCCCCCCCC(=O)NCCCCCC(=O)NCCCC[C@H](NC(=O)[C@@H](NC(=O)[C@@H](NC(=O)[C@@H]1CCCN1C(=O)[C@@H](NC(=O)[C@H](Cc1c[nH]cn1)NC(=O)[C@@H](NC(=O)[C@H](Cc1nn[nH]n1)NC(=O)CC(C)C)[C@@H](C)O)C(c1ccccc1)c1ccccc1)[C@@H](C)CC)[C@@H](C)CC)C(=O)N[C@H](CC(N)=O)Cc1ccccc1 [compound 113] (Isovaleryl-[Ala(1H-tetrazol-5-yl)]TH[Dip]PIIK([Ahx-Palmitoyl])[β3hF]-NH2) : 86.8

// DC50 value for CCCCCCCCCCCCCCCC(=O)NCCCCCC(=O)NCCCC[C@H](NC(=O)[C@@H](NC(=O)[C@H](CCC(C)C)NC(=O)[C@@H]1CCCN1C(=O)[C@@H](NC(=O)[C@H](Cc1c[nH]cn1)NC(=O)[C@@H](NC(=O)[C@H](CCC(=O)O)NC(=O)CC(C)C)[C@@H](C)O)C(c1ccccc1)c1ccccc1)[C@@H](C)CC)C(=O)N[C@H](CC(N)=O)Cc1ccccc1 [compound 121] (Isovaleryl-ETH[Dip]P[hLeu]IK([Ahx-Palmitoyl])[β3hF]-NH2) : 150

// DC50 value for CC[C@H](C)[C@H](NC(=O)[C@H](C)NC(=O)[C@@H]1CCCN1C(=O)[C@@H](NC(=O)[C@H](Cc1c[nH]cn1)NC(=O)[C@@H](NC(=O)[C@H](CCC(=O)O)NC(=O)CC(C)C)[C@@H](C)O)C(c1ccccc1)c1ccccc1)C(=O)N[C@@H](CCCCNC(=O)COCCOCCNC(=O)COCCOCCNC(=O)CCCCCNC(=O)CCCCCCCCCCCCCCCCC(=O)O)C(=O)N[C@H](CC(N)=O)Cc1ccccc1 [compound 76] (Isovaleryl-ETH[Dip]PAIK([AEEA-AEEA-Ahx-C18 diacid])[β3hF]-NH2) : 150

// DC50 value for CC[C@H](C)[C@H](NC(=O)[C@H](C)NC(=O)[C@@H]1CCCN1C(=O)[C@@H](NC(=O)[C@H](Cc1c[nH]cn1)NC(=O)[C@@H](NC(=O)[C@H](CCc1nnn[nH]1)NC(=O)CC(C)C)[C@@H](C)O)C(c1ccccc1)c1ccccc1)C(=O)N[C@@H](CCCCNC(C)=O)C(=O)N[C@H](CC(=O)N[C@H](CCCCN)C(=O)N[C@@H](C)C(N)=O)Cc1ccccc1 [compound 38] (Isovaleryl-[X15]TH[Dip]PAIK(Ac)[β3hF][dK]A-NH2) : 117

// DC50 value for CCCCCCCCCCCCCCCC(=O)NCCCCCC(=O)NCCCC[C@H](NC(=O)[C@@H](NC(=O)[C@H](C)NC(=O)[C@@H]1CCCN1C(=O)[C@@H](NC(=O)[C@H](Cc1c[nH]cn1)NC(=O)[C@@H](NC(=O)[C@H](CCC(=O)O)NC(=O)CC(C)C)[C@@H](C)O)C(c1ccccc1)c1ccccc1)[C@@H](C)CC)C(=O)N[C@H](CC(N)=O)Cc1ccccc1 [SEQ ID No. 9] (Isovaleryl-ETH[Dip]PAIK([Ahx-Palmitoyl])[β3hF]-NH2) : 31.9

// DC50 value for CCCCCCCCCCCCCCCC(=O)NCCCCCC(=O)NCCCC[C@H](NC(=O)C[C@H](Cc1ccccc1)NC(=O)[C@@H](CCCCN)NC(=O)[C@@H](NC(=O)[C@H](CO)NC(=O)[C@@H]1CCCN1C(=O)[C@@H](NC(=O)[C@H](Cc1c[nH]cn1)NC(=O)[C@@H](NC(=O)[C@H](CCC(=O)O)NC(=O)CC(C)C)[C@@H](C)O)C(c1ccccc1)c1ccccc1)[C@@H](C)CC)C(N)=O [compound 20] (Isovaleryl-ETH[Dip]PSI[dK][β3hF]K([Ahx-Palmitoyl])-NH2) : 46.3
